In this section, each of the molecules is paired with its reported Ki.
- Test system: human arginase I (Homo sapiens)
- Sequence (P05089 whole entry): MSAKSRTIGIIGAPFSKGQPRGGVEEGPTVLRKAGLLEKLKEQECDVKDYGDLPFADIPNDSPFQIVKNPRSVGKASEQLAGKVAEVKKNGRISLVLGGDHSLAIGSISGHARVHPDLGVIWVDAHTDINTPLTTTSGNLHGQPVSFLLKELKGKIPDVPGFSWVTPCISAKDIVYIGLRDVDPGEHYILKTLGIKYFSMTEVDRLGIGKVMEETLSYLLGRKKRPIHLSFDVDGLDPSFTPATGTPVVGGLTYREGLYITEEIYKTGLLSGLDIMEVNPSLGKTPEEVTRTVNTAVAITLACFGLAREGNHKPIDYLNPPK
- Protocol text: Arginase inhibition, QuantiChrom colorimetric urea assay, IC50 converted to Ki
- Assay type: biochemical
- Settings: Table 3; pH 9.5; read-out: human Arginase I pH 9.5, Ki assigned value

Molecule	Test system	Ki
NC(CCCCB(O)O)(CCCN1CCCC1c1ccccc1C(F)(F)F)C(=O)O (stereo not drawn)	human arginase I (Homo sapiens)	51 to 100 nM
NC(CCCCB(O)O)(CCCN1CCN(Cc2cccc(F)c2F)CC1)C(=O)O (stereo not drawn)	human arginase I (Homo sapiens)	11 to 50 nM
COc1ccc(C2CCN(CCCC(N)(CCCCB(O)O)C(=O)O)CC2)cc1 (stereo not drawn)	human arginase I (Homo sapiens)	< 10 nM
NC(CCCCB(O)O)(CCCNC1CCCCC1)C(=O)O (stereo not drawn)	human arginase I (Homo sapiens)	< 10 nM
NC(CCCCB(O)O)(CCN1CCN(Cc2ccc(Cl)c(Cl)c2)CC1)C(=O)O (stereo not drawn)	human arginase I (Homo sapiens)	101 to 250 nM

Challenge: Using the record for NC(CCCCB(O)O)(CCCN1CC(NC(=O)Nc2ccc(Cl)c(Cl)c2)C1)C(=O)O (stereo not drawn) , report its Ki.
Response given: < 10 nM

Challenge: Another molecule to check: NC(CCCCB(O)O)(CCCNCCc1ccccc1)C(=O)O (stereo not drawn)
Response given: < 10 nM

Challenge: // next record CN(CCCC(N)(CCCCB(O)O)C(=O)O)C1CCCCC1 (stereo not drawn)
Response given: 11 to 50 nM

Challenge: Same lookup for CN1CCN(CCCC(N)(CCCCB(O)O)C(=O)O)C(c2ccccc2)C1 (stereo not drawn) , please.
Response given: 11 to 50 nM
